system: aromatase; assay: ToxCast aromatase assays (TOX21_Aromatase_Inhibition) and final ToxCast call; assay type: cell-based; conditions: aromatase overall ToxCast call
readout kind: ToxCast result

1. CCCCOC(=O)c1ccccc1C(=O)OCc1ccccc1 [BBP, benzyl butyl phthalate]; Negative
2. O=c1c(-c2ccc(O)cc2)coc2cc(O)ccc12; Negative
3. CCN(CC)c1ccc(C(=O)c2ccccc2C(=O)O)c(O)c1; Negative

* * *

molecular target: human (non-selective) ER; test: ER radioligand ([3H]estradiol) receptor-binding assay; settings: follow-up dose–response assay
pIC50: −log10 of the molar value.
readout kind: pIC50

1) C[C@]12CCC(=O)C[C@@H]1CC[C@@H]1[C@@H]2CC[C@@]2(C)[C@H]1CC[C@]2(C)O [Mestanolone, mestanolone, reference compound]; 5.80
